All values here come from ChEMBL document CHEMBL4811223.

Tested on: A549
Experiment: Cytotoxicity against human A549 cells assessed as cell growth inhibition after 48 hrs by MTT assay
Assay type: functional, cell-based
Settings: A549, 48 h
QUANTITY KIND: IC50

SMILES STR	IC50
CC(=O)O[C@@H]1C[C@]2(C)C(=CC[C@@H]3[C@@]4(C)CC[C@H](O[C@@H]5OC[C@H](O[C@@H]6O[C@H](CO)[C@@H](O)[C@H](O)[C@H]6O[C@@H]6OC[C@@H](O)[C@H](O)[C@H]6O)[C@H](O)[C@H]5O[C@@H]5O[C@H](CO)[C@@H](O)[C@H](O)[C@H]5O)C(C)(C)[C@@H]4CC[C@]32C)[C@@H]2CC(C)(C)C[C@H](O)[C@]12CO	> 10 µM
CC(=O)O[C@@H]1[C@H](O)[C@]2(C)C(=CC[C@@H]3[C@@]4(C)CC[C@H](O[C@@H]5OC[C@H](O[C@@H]6O[C@H](CO)[C@@H](O)[C@H](O)[C@H]6O[C@@H]6OC[C@@H](O)[C@H](O)[C@H]6O)[C@H](O)[C@H]5O[C@@H]5O[C@H](CO)[C@@H](O)[C@H](O)[C@H]5O)C(C)(C)[C@@H]4CC[C@]32C)[C@@H]2CC(C)(C)C[C@H](O)[C@]12CO	> 10 µM

Kindly consider the entry below.
input: Answer with the recorded IC50 of CC1(C)C[C@H](O)[C@]2(CO)[C@H](O)[C@H](O)[C@]3(C)C(=CC[C@@H]4[C@@]5(C)CC[C@H](O[C@@H]6OC[C@H](O[C@@H]7O[C@H](CO)[C@@H](O)[C@H](O)[C@H]7O[C@@H]7OC[C@@H](O)[C@H](O)[C@H]7O)[C@H](O)[C@H]6O[C@@H]6O[C@H](CO)[C@@H](O)[C@H](O)[C@H]6O)C(C)(C)[C@@H]5CC[C@]43C)[C@@H]2C1 only.
output: > 10 µM
